Listed here: items and their measured melting point.

The following compounds have reported results that may help.
{"columns": ["Compound", "melting point"],
 "data": [
  ["CON1CCC2(CC1)C(O)=C(c1cc(C)c(C)cc1Cl)C(=O)N2C [Compound P2.26]", "191 to 192 °C"],
  ["COCON1C(=O)C(c2c(F)ccc(C)c2Cl)=C(O)C12CCN(OC)CC2", "155 to 158 °C"],
  ["COCON1C(=O)C(c2c(C)cc(Cl)cc2C)=C(O)C12CCN(OC)CC2", "176 to 178 °C"],
  ["CON1CCC2(CC1)C(O)=C(c1cc(Br)c(C)cc1C)C(=O)N2OC", "86 to 87 °C"],
  ["CON1CCC2(CC1)C(O)=C(c1c(C)cc(C)cc1C)C(=O)N2OCC1CCCCC1", "169 to 172 °C"]
]}

Note: attention shifts to another entry.
Query block: Reported melting point, compound COCON1C(=O)C(c2cc(Br)c(F)cc2C)=C(O)C12CCN(OC)CC2 : ____
Result block: 64 to 67 °C

----------
System: Soybeans (Glycine max)
Measurement description: Seed application on soybeans in pouch, plant growth effects (shoot length, root system)
Assay type: in vivo
Test parameters: AI concentration 5 ppm, 14 days, additional growth vs blank formulation check
Endpoint label: Mean shoot height increase (%)
Record the result as number plus unit.

{"columns": ["Compound", "Test target", "Readout value"],
 "data": [
  ["CCOC(=O)OC1=C(c2c(C)ccc(C)c2C)C(=O)N(C)C12CCN(OC)CC2 [Compound P1.21]", "Soybeans (Glycine max)", "24.5%"],
  ["CCOC(=O)OC1=C(c2c(C)cc(C)cc2C)C(=O)N(OCC)C12CCN(OC)CC2", "Soybeans (Glycine max)", "38.9%"],
  ["CCOC(=O)OC1=C(c2c(C)cc(C)cc2OC)C(=O)N(OCC)C12CCN(OC)CC2", "Soybeans (Glycine max)", "10.6%"]
]}

Query block: Form field - read-out: Mean shoot height increase (%); system: Soybeans (Glycine max); submitted item: CCOC(=O)OC1=C(c2cc(C)c(C)cc2C)C(=O)N(OCOC)C12CCN(OC)CC2
Result block: 7.2%

Query block: Cool, now CCOC(=O)OC1=C(c2c(C)cc(Br)cc2C)C(=O)N(C)C12CCN(OC)CC2 [Compound P1.12]
Result block: 16.0%

Query block: Check CCOC(=O)OC1=C(c2c(C)cc(C)cc2C)C(=O)N(C)C12CCN(OC)CC2 [Compound P1.2] too.
Result block: 8.5%

Query block: Same thing, different compound: CCOC(=O)OC1=C(c2c(C)cc(Br)cc2CC)C(=O)N(OC2CCCO2)C12CCN(OC)CC2 (stereo not shown) [T25N.078, wherein G is COOCH2CH3]
Result block: 14.5%

----------
Endpoint label: melting point

Example results:
{"columns": ["Compound", "Readout value"],
 "data": [
  ["CON1CCC2(CC1)C(O)=C(c1c(C)cc(Cl)cc1C)C(=O)N2OC1CCCO1 (stereo not drawn)", "137 to 139 °C"],
  ["CCOC(=O)OC1=C(c2cc(C)ccc2C)C(=O)N(C)C12CCN(OC)CC2 [Compound P1.1]", "96 to 110 °C"],
  ["CON1CCC2(CC1)C(O)=C(c1cc(C)c(C)cc1C)C(=O)N2C [Compound P2.25]", "183 to 186 °C"]
]}

Query block: Request the reported melting point associated with COCCON1C(=O)C(c2cc(Br)c(C)cc2C)=C(O)C12CCN(OC)CC2
Result block: 63 to 64 °C

Query block: Try CON1CCC2(CC1)C(O)=C(c1c(C)cc(C)cc1C)C(=O)N2CC1CC1 [Compound P2.8] next.
Result block: 223 to 225 °C

Query block: Same read-out for CON1CCC2(CC1)C(O)=C(c1cc(Br)c(C)cc1C)C(=O)N2C [Compound P2.28] ?
Result block: 182 to 183 °C

Query block: Also, COCON1C(=O)C(c2cc(C)ccc2C)=C(OC)C12CCN(OC)CC2 please.
Result block: 91 to 93 °C

Query block: CCOC(=O)OC1=C(c2cc(C)c(C)cc2Cl)C(=O)N(C)C12CCN(OC)CC2 [Compound P1.22] ?
Result block: 149 to 150 °C
